Data origin: patent US20240116985A1

Molecular target: full-length beta-Catenin (Uniprot ID P35222) (Homo sapiens, UniProt P35222)
Construct: 10 nM full-length beta-Catenin (Uniprot ID P35222)
Sequence (P35222 1-781): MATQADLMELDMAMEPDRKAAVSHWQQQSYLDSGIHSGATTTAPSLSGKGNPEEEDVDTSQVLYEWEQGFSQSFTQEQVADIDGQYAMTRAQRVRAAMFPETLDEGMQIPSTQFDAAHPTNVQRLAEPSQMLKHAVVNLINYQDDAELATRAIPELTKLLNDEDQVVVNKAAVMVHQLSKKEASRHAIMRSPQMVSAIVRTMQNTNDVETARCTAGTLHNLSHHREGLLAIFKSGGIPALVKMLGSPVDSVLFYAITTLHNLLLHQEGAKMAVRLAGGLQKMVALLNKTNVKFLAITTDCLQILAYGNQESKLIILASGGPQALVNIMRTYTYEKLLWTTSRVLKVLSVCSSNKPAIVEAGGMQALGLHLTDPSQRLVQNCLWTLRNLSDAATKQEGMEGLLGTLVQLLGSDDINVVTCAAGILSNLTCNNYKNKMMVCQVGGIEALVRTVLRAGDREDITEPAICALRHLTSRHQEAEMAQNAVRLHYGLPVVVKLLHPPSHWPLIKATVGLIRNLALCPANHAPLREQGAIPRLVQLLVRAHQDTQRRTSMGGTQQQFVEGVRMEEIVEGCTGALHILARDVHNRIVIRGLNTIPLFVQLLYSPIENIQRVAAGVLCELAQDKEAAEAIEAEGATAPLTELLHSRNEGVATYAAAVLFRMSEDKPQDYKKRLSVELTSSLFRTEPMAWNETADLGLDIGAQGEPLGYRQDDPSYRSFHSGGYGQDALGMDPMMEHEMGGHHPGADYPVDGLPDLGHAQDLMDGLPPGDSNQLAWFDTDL
Assay: Fluorescence polarization IC50 (beta-catenin / 5FAM-TCF4 10-53 competition)
Format: binding
Settings: read-out: beta-Catenin FP IC50
Would you kindly list log10 IC50 for each of these molecules?
# values: log10(IC50), units nM

Task: Consider the molecule shown here: CCN(CC(=O)O)C[C@@H]1NC(=O)[C@H](CC(=O)O)NC(=O)C2(CCCC=CCCCOC(=O)N3CC[C@@](C(=O)N[C@@H](Cc4ccsc4)C(=O)N[C@@H](Cc4csc5ccccc45)C(=O)N[C@@H](CCC(N)=O)C(N)=O)(C3)NC(=O)[C@H](CC(C)C)NC(=O)[C@H](Cc3ccccc3)NC(=O)[C@H](C)NC(=O)[C@H](C)NC1=O)CCCC=CC[C@]1(CCCN1C(C)=O)C(=O)N[C@@H](CC(=O)O)C(=O)N[C@@H](CC(C)(C)C)C(=O)N2 (some centres unmarked) [I-972] What is its recorded log10 IC50?
Result: 3.26

Task: Consider the molecule shown here: CC(=O)N1CCC[C@]12CC=CCCCC1(CCCC=CCCCOC(=O)N3CC[C@@](C(=O)N[C@@H](Cc4ccsc4)C(=O)N[C@@H](Cc4csc5ccccc45)C(=O)N[C@@H](CCC(N)=O)C(=O)N[C@@H](CCCCNC(=O)c4cccc5ccccc45)C(N)=O)(C3)NC(=O)[C@H](CC(N)=O)NC(=O)[C@H](Cc3ccccc3)NC(=O)[C@H](C)NC(=O)[C@H](C)NC(=O)[C@H](CC(=O)O)NC(=O)[C@H](CC(=O)O)NC1=O)NC(=O)[C@H](CC(C)(C)C)NC(=O)[C@H](CC(=O)O)NC2=O (some centres unmarked) What is its recorded log10 IC50?
Result: 1.45

Task: Consider the molecule shown here: CC(=O)N1CCC[C@]12CC=CCCCC1(CCCC=CCCCOC(=O)N3CC[C@@](C(=O)N[C@@H](Cc4ccccc4F)C(=O)N[C@@H](Cc4csc5ccccc45)C(=O)N[C@@H](CO)C(N)=O)(C3)NC(=O)[C@H](CO)NC(=O)[C@H](Cc3ccccc3)NC(=O)[C@H](C)NC(=O)[C@H](C)NC(=O)[C@H](CC(=O)O)NC(=O)[C@H](CC(=O)O)NC1=O)NC(=O)[C@H](CC1CCCCC1)NC(=O)[C@H](CC(=O)O)NC2=O (some centres unmarked) What is its recorded log10 IC50?
Result: 1.20

Task: Consider the molecule shown here: CC(=O)N1CCC[C@]12CC=CCCCC1(CCCC=CCCCOC(=O)N3CC[C@@](C(=O)N[C@@H](Cc4ccsc4)C(=O)N[C@@H](Cc4csc5ccccc45)C(N)=O)(C3)NC(=O)[C@H](CC(N)=O)NC(=O)[C@H](Cc3ccccc3)NC(=O)[C@H](C)NC(=O)[C@H](C)NC(=O)[C@H](CC(C)C)NC(=O)[C@H](CC(=O)O)NC1=O)NC(=O)[C@H](CC(C)(C)C)NC(=O)[C@H](CC(=O)O)NC2=O (some centres unmarked) What is its recorded log10 IC50?
Result: 2.09

Task: Consider the molecule shown here: CC(=O)N1CCC[C@]12CC=CCCCC1(CCCC=CCOC(=O)N(C)CCC[C@@](C)(C(=O)N[C@@H](Cc3ccsc3)C(=O)N[C@@H](Cc3csc4ccccc34)C(=O)N[C@@H](Cc3c[nH]cn3)C(N)=O)NC(=O)[C@H](CC(N)=O)NC(=O)[C@H](Cc3ccccc3)NC(=O)[C@H](C)NC(=O)[C@H](C)NC(=O)[C@H](CC(=O)O)NC(=O)[C@H](CC(=O)O)NC1=O)NC(=O)[C@H](CC(C)(C)C)NC(=O)[C@H](CC(=O)O)NC2=O (some centres unmarked) [I-773] What is its recorded log10 IC50?
Result: 2.22

Task: Consider the molecule shown here: CC(=O)N1CCC[C@]12CC=CCCCC1(CCCC=CCCCOC(=O)N3CC[C@@](C(=O)N[C@@H](Cc4ccsc4)C(=O)N[C@@H](Cc4csc5ccccc45)C(=O)N[C@@H](CO)C(N)=O)(C3)NC(=O)[C@H](CO)NC(=O)[C@H](Cc3ccccc3)NC(=O)[C@H](C)NC(=O)[C@H](C)NC(=O)[C@H](CN(CC(=O)O)CC(F)(F)F)NC(=O)[C@H](CC(=O)O)NC1=O)NC(=O)[C@H](CC(C)(C)C)NC(=O)[C@H](CC(=O)O)NC2=O (some centres unmarked) [I-954] What is its recorded log10 IC50?
Result: 2.95

Task: Consider the molecule shown here: CC(=O)N1CCC[C@]12CC=CCCCC1(CCCC=CCCCOC(=O)N3CC[C@@](C(=O)N[C@@H](Cc4ccccc4Cl)C(=O)N[C@@H](Cc4csc5ccccc45)C(=O)N[C@@H](CCC(N)=O)C(N)=O)(C3)NC(=O)[C@H]([C@@H](C)O)NC(=O)[C@H](Cc3ccccc3)NC(=O)[C@H](C)NC(=O)[C@H](C)NC(=O)[C@H](CC(=O)O)NC(=O)[C@H](CC(=O)O)NC1=O)NC(=O)[C@H](CC1CCCCC1)NC(=O)[C@H](CC(=O)O)NC2=O (some centres unmarked) What is its recorded log10 IC50?
Result: 0.70

Task: Consider the molecule shown here: CC(=O)N1CCC[C@]12CC=CCCCC1(CCCC=CCCCOC(=O)N3CC[C@@](C(=O)N[C@@H](Cc4ccsc4)C(=O)N[C@@H](Cc4csc5ccccc45)C(=O)N[C@@H](CCC(N)=O)C(=O)N[C@@H](CCCCNC(=O)c4ccc(CN(C)C)cc4)C(N)=O)(C3)NC(=O)[C@H](CC(N)=O)NC(=O)[C@H](Cc3ccccc3)NC(=O)[C@H](C)NC(=O)[C@H](C)NC(=O)[C@H](CC(=O)O)NC(=O)[C@H](CC(=O)O)NC1=O)NC(=O)[C@H](CC(C)(C)C)NC(=O)[C@H](CC(=O)O)NC2=O (some centres unmarked) What is its recorded log10 IC50?
Result: 1.00

* * *

target: beta-catenin/TCF4 engagement (Homo sapiens); construct: expressed in transfected cells; host or cells: HEK293; test: Nano-BRET target engagement assay (B-cat-Halo & TCF4-Luc in HEK293 cells); assay type: cell-based; details: read-out: NanoBRET Abs IC50
measure: IC50

Task: Consider the compound shown here: CC(=O)N1CCC[C@]12CC=CCCCC[C@@](C)(C(=O)N[C@@H](CC(=O)O)C(=O)N[C@@H](CC(=O)O)C(=O)N[C@@H](C)C(=O)N[C@@H](C)C(=O)N[C@@H](Cc1ccccc1)C(=O)N[C@@H](CC(C)C)C(=O)NC(C)(C)C(=O)N[C@@H](Cc1ccsc1)C(=O)N[C@@H](Cc1csc3ccccc13)C(=O)N[C@@H](CCC(N)=O)C(N)=O)NC(=O)[C@H](CC(C)(C)C)NC(=O)[C@H](CC(=O)O)NC2=O What is its recorded IC50?
Result: > 20 µM

Task: Consider the compound shown here: CC(=O)N1CCC[C@]12CC=CCCCC1(CCCC=CCCCOC(=O)N3CC[C@@](C(=O)N[C@@H](Cc4ccsc4)C(=O)N[C@@H](Cc4csc5ccccc45)C(=O)N[C@@H](Cc4ccccc4)C(N)=O)(C3)NC(=O)[C@H](CC(C)C)NC(=O)[C@H](Cc3ccccc3)NC(=O)[C@H](C)NC(=O)[C@H](CCCCNC(C)C)NC(=O)[C@H](Cc3cccc(C(=O)O)c3)NC(=O)[C@H](CC(=O)O)NC1=O)NC(=O)[C@H](CC(C)(C)C)NC(=O)[C@H](CC(=O)O)NC2=O (stereo partly drawn) What is its recorded IC50?
Result: > 20 µM

Task: Consider the compound shown here: CC(=O)N1CCC[C@]12CC=CCCCC1(CCCC=CCCCOC(=O)N3CC[C@@](C(=O)N[C@@H](Cc4ccccc4)C(=O)N[C@@H](Cc4csc5ccccc45)C(=O)N[C@@H](Cc4ccccc4)C(N)=O)(C3)NC(=O)[C@H](CC(N)=O)NC(=O)[C@H](Cc3ccccc3)NC(=O)[C@H](C)NC(=O)[C@H](CCCCNC(C)C)NC(=O)[C@H](CCC(N)=O)NC(=O)[C@H](CC(=O)O)NC1=O)NC(=O)[C@H](CC1CCCCC1)NC(=O)[C@H](CC(N)=O)NC2=O (stereo partly drawn) What is its recorded IC50?
Result: > 20 µM
